Recorded inhibition at 0.125 µM, one value per entry.
biological target: thrombin (Homo sapiens, UniProt P00734); experiment: Effect of test compounds on thrombin activity: hydrolysis rate of chromogenic (Chromozim TH) or fluorogenic (BOC-Ala-Pro-Arg-AMC) substrate; format: biochemical; details: concentration of compound 125 nM

Molecule	Assay system	inhibition at 0.125 µM [%]
Cc1cc(OCCCSC(=N)N)cc(OS(=O)(=O)c2ccccc2Cl)c1 [HC-026s-IOC]	thrombin (Homo sapiens, UniProt P00734)	68
Cc1cc(OCC[n+]2ccc(N)cc2)cc(OS(=O)(=O)c2ccccc2Cl)c1 [HC-025s-IOC]	thrombin (Homo sapiens, UniProt P00734)	98
Cc1cc(OCC[n+]2ccc(N)cc2)cc(OS(=O)(=O)c2ccccc2)c1 [HC-019s-IOC]	thrombin (Homo sapiens, UniProt P00734)	94
Cc1cc(OCCSC(=N)N)cc(OS(=O)(=O)c2ccccc2)c1.I [HC-020s-IOC]	thrombin (Homo sapiens, UniProt P00734)	81

----------
Molecular target: thrombin (Homo sapiens, UniProt P00734)
Assay: Effect of test compounds on thrombin activity: hydrolysis rate of chromogenic (Chromozim TH) or fluorogenic (BOC-Ala-Pro-Arg-AMC) substrate
Assay type: biochemical
Details: concentration of compound 2.5 mcM
Experimental: The effect of the synthesized substances on thrombin activity was studied by measuring the hydrolysis rate of specific low molecular weight substrates with thrombin in an aqueous buffering solution in the absence and presence of these compounds. […] The initial reaction rate was measured as the tangent of the kinetic curve inclination angle on a straight section (first 10 to 15 minutes of registration). […]
Collected Hydrolysis rate inhibition, % values appear next to each entry.
Value type: Hydrolysis rate inhibition, %

Compound	Value type	Observed measurement
Cc1cc(OCCC[n+]2ccc(N)cc2)cc(OS(=O)(=O)c2ccccc2F)c1.[I-]	Hydrolysis rate inhibition, %	75%
Cc1cc(OCC[n+]2ccc(N)cc2)cc(OS(=O)(=O)c2ccccc2F)c1	Hydrolysis rate inhibition, %	89%
Cc1cc(OCC[n+]2ccc(N)cc2)cc(OS(=O)(=O)c2ccccc2S(C)(=O)=O)c1	Hydrolysis rate inhibition, %	96%
Cc1cc(OCC[n+]2ccsc2N)cc(OS(=O)(=O)c2ccccc2Cl)c1.[I-]	Hydrolysis rate inhibition, %	87%
Cc1cc(OCC[n+]2ccc(N)cc2)cc(OS(=O)(=O)c2ccc(Cl)cc2)c1	Hydrolysis rate inhibition, %	98%
Cc1ccc(S(=O)(=O)Oc2cc(C)cc(OCC[n+]3ccc(N)cc3)c2)cc1	Hydrolysis rate inhibition, %	96%
Cc1cc(OCCSC(=N)N)cc(OS(=O)(=O)c2ccccc2)c1.I [HC-020s-IOC]	Hydrolysis rate inhibition, %	99%
Cc1cc(OCC[n+]2ccc(N)nc2)cc(OS(=O)(=O)c2ccccc2)c1.[I-]	Hydrolysis rate inhibition, %	90%

----------
target: thrombin (Homo sapiens, UniProt P00734); assay: Effect of test compounds on thrombin activity: hydrolysis rate of chromogenic (Chromozim TH) or fluorogenic (BOC-Ala-Pro-Arg-AMC) substrate; assay type: biochemical; conditions: concentration of compound 10 mcM
Value type: Hydrolysis rate inhibition, %

Compound	Assay system	Observed measurement
C/N=C(/N)SCCCOc1cc(C)cc(OS(=O)(=O)c2ccccc2Cl)c1.I	thrombin (Homo sapiens, UniProt P00734)	71%
CN(c1ccccc1)S(=O)(=O)c1ccc2c(c1)nc(CC[n+]1ccc(N)cc1)n2C.[Cl-]	thrombin (Homo sapiens, UniProt P00734)	59%
Cc1cc(OCCC[n+]2ccsc2N)cc(OS(=O)(=O)c2ccccc2F)c1.[I-]	thrombin (Homo sapiens, UniProt P00734)	93%
Cc1cc(OCCCSC(=N)N)cc(OS(=O)(=O)c2ccccc2)c1.I [HC-018s-IOC]	thrombin (Homo sapiens, UniProt P00734)	100%

----------
molecular target: thrombin (Homo sapiens, UniProt P00734); test: Effect of test compounds on thrombin activity: hydrolysis rate of chromogenic (Chromozim TH) or fluorogenic (BOC-Ala-Pro-Arg-AMC) substrate; format: biochemical; conditions: concentration of compound 5 nM

Compound	inhibition at 0.005 µM / %
Cc1cc(OCC[n+]2ccc(N)cc2)cc(OS(=O)(=O)c2ccccc2S(C)(=O)=O)c1	28
Cc1cc(OCCCSC(=N)N)cc(OS(=O)(=O)c2ccccc2Cl)c1 [HC-026s-IOC]	47
Cc1cc(OCC[n+]2ccc(N)cc2)cc(OS(=O)(=O)c2ccccc2F)c1	59
Cc1cc(OCC[n+]2ccc(N)cc2)cc(OS(=O)(=O)c2ccc(Cl)cc2)c1	44
Cc1cc(OCCSC(=N)N)cc(OS(=O)(=O)c2ccccc2S(C)(=O)=O)c1	19
Cc1cc(OCCSC(=N)N)cc(OS(=O)(=O)c2ccccc2Cl)c1	59
Cc1cc(OCCSC(=N)N)cc(OS(=O)(=O)c2ccccc2)c1.I [HC-020s-IOC]	54
Cc1ccc(S(=O)(=O)Oc2cc(C)cc(OCC[n+]3ccc(N)cc3)c2)cc1	47
Cc1cc(OCCCSC(=N)N)cc(OS(=O)(=O)c2ccccc2F)c1.I	35
Cc1cc(OCC[n+]2ccc(N)cc2)cc(OS(=O)(=O)c2ccccc2)c1 [HC-019s-IOC]	88

----------
Quick reference: Hydrolysis rate inhibition, % of the listed items.
target: thrombin (Homo sapiens, UniProt P00734); assay: Effect of test compounds on thrombin activity: hydrolysis rate of chromogenic (Chromozim TH) or fluorogenic (BOC-Ala-Pro-Arg-AMC) substrate; format: biochemical; details: concentration of compound 5 mcM
Value type: Hydrolysis rate inhibition, % (%)

Molecule	Value type	Units of measure	Observed measurement
Cc1cc(OCCC[n+]2ccc(N)cc2)cc(OS(=O)(=O)c2ccccc2F)c1.[I-]	Hydrolysis rate inhibition, %	%	81
Cc1cc(OCCSC(=N)N)cc(OS(=O)(=O)c2ccccc2)c1.I [HC-020s-IOC]	Hydrolysis rate inhibition, %	%	99
Cc1cc(OCCCSC(=N)N)cc(OS(=O)(=O)c2ccccc2F)c1.I	Hydrolysis rate inhibition, %	%	100
CN(c1ccccc1)S(=O)(=O)c1ccc2c(c1)nc(CC[n+]1ccc(N)cc1)n2C.[Cl-]	Hydrolysis rate inhibition, %	%	24
CNc1ccc(S(=O)(=O)N(C)c2ccccc2)cc1NC(=O)CC[n+]1ccc(N(C)C)cc1.[Cl-] [HC-022s-IOC]	Hydrolysis rate inhibition, %	%	27
C/N=C(/N)SCCCOc1cc(C)cc(OS(=O)(=O)c2ccccc2Cl)c1.I	Hydrolysis rate inhibition, %	%	48
CNc1ccc(S(=O)(=O)N(C)c2ccccc2)cc1NC(=O)CC[n+]1ccc(N)cc1.[Cl-]	Hydrolysis rate inhibition, %	%	78
Cc1cc(OCCCn2ccsc2=N)cc(OS(=O)(=O)c2ccccc2)c1	Hydrolysis rate inhibition, %	%	73
Cc1cc(OCCC[n+]2ccsc2N)cc(OS(=O)(=O)c2ccccc2F)c1.[I-]	Hydrolysis rate inhibition, %	%	88
Cc1cc(OCCCSC(=N)N)cc(OS(=O)(=O)c2ccccc2)c1.I [HC-018s-IOC]	Hydrolysis rate inhibition, %	%	100

----------
target: thrombin (Homo sapiens); experiment: Effect of test compounds on thrombin activity: hydrolysis rate of chromogenic (Chromozim TH) or fluorogenic (BOC-Ala-Pro-Arg-AMC) substrate; format: biochemical; settings: concentration of compound 0.5 mcM

Compound	Hydrolysis rate inhibition, %
CNc1ccc(S(=O)(=O)N(C)c2ccccc2)cc1NC(=O)CC[n+]1ccc(N)cc1.[Cl-] [HC_028s_IOC]	46%
Cc1cc(OCC[n+]2ccsc2N)cc(OS(=O)(=O)c2ccccc2Cl)c1.[I-] [HC_045s_IOC]	42%
CNc1ccc(S(=O)(=O)N(C)c2ccccc2)cc1NC(=O)CC[n+]1ccc(N(C)C)cc1.[Cl-] [HC-022s-IOC]	18%
Cc1cc(OCC[n+]2ccc(N)nc2)cc(OS(=O)(=O)c2ccccc2)c1.[I-] [HC_047s_IOC]	49%

----------
biological target: thrombin (Homo sapiens); assay: Effect of test compounds on thrombin activity: hydrolysis rate of chromogenic (Chromozim TH) or fluorogenic (BOC-Ala-Pro-Arg-AMC) substrate; assay type: biochemical; conditions: concentration of compound 0.25 mcM
Please use class 1 whenever Hydrolysis rate inhibition, % is not below 30%, and class 0 whenever it is.

Compound	Label
Nc1cc[n+](CCOc2cccc(NS(=O)(=O)c3ccccc3)c2)cc1	class 1
CN(c1ccccc1)S(=O)(=O)c1ccc2c(c1)nc(CC[n+]1ccc(N)cc1)n2C.[Cl-]	class 0
Cc1cc(OCC[n+]2ccc(N)nc2)cc(OS(=O)(=O)c2ccccc2)c1.[I-]	class 1
Cc1cc(OCC[n+]2ccsc2N)cc(OS(=O)(=O)c2ccccc2Cl)c1.[I-]	class 0
CNc1ccc(S(=O)(=O)N(C)c2ccccc2)cc1NC(=O)CC[n+]1ccc(N(C)C)cc1.[Cl-] [HC-022s-IOC]	class 0
CNc1ccc(S(=O)(=O)N(C)c2ccccc2)cc1NC(=O)CC[n+]1ccc(N)cc1.[Cl-]	class 1

----------
Catalogue of molecules with associated Hydrolysis rate inhibition, %
molecular target: thrombin (Homo sapiens, UniProt P00734); test: Effect of test compounds on thrombin activity: hydrolysis rate of chromogenic (Chromozim TH) or fluorogenic (BOC-Ala-Pro-Arg-AMC) substrate; assay type: biochemical; settings: concentration of compound 2 mcM

Molecule	Assay system	Units of measure	Hydrolysis rate inhibition, %
Cc1cc(OCCCSC(=N)N)cc(OS(=O)(=O)c2ccccc2F)c1.I [HC_031s_IOC]	thrombin (Homo sapiens, UniProt P00734)	%	99
Cc1cc(OCCCn2ccsc2=N)cc(OS(=O)(=O)c2ccccc2)c1	thrombin (Homo sapiens, UniProt P00734)	%	57
Cc1cc(OCCC[n+]2ccsc2N)cc(OS(=O)(=O)c2ccccc2F)c1.[I-] [HC_030s_IOC]	thrombin (Homo sapiens, UniProt P00734)	%	72
Cc1cc(OCCCSC(=N)N)cc(OS(=O)(=O)c2ccccc2)c1.I [HC-018s-IOC]	thrombin (Homo sapiens, UniProt P00734)	%	100
